Numbers sourced from PubChem BioAssay.

- experimental details: viability loss with induced miR-34 in A549 – imaging, A549 dox-inducible miR-34, nuclei and caspase counts, primary screen (AID 1347080)
- assay conditions: A549 miR-34 inducible, Hoechst nuclei count, 48 h; stronger effect = lower value; cell number ratio, induced over uninduced
Rule for this label: fulfilled means fold change is less than 1; not fulfilled means fold change is at least 1.

Check out these entries, answers already filled in.
compound=CCCCCCCCCCC1=C(C)C(=O)C(OC)=C(OC)C1=O group=fulfilled
compound="CC1CN(CCCn2c3ccccc3c3ccccc32)CC(C)N1 (stereo unspecified)" group=fulfilled
compound=O=C(O)CCCCc1ccccc1 group=fulfilled
compound=CCNc1nc2c(ncn2[C@H]2C[C@H](O)[C@@H](CO)O2)c(=O)[nH]1 group=fulfilled
compound="CC(C)C1C(=O)NC(CCCN=C(N)N)C(=O)NCC(=O)NC(CC(=O)O)C(=O)NC(Cc2ccccc2)C(=O)N1C (stereo unspecified)" group=fulfilled

Criterion: fold change strictly below 1. Is it met by CN1CCC2(CCN3CCc4c(oc5ccccc45)C3C2)N(C)C1=O (stereo unspecified) ?
not fulfilled

fold change under 1? Item: O=c1cc(O)cc(/C=C/c2ccc(O)c(O)c2)o1
not fulfilled

Please let me know if CC(=O)/C(C)=N/O shows fold change below 1.
fulfilled

----------
The reader will find reported inhibition values listed item by item below.
- experimental details: drug combination toxicity in non-malignant astrocytes – cell-based, BGB or cisplatin IC20 combos, cytotoxicity control for chromothriptic childhood tumor combination screen (AID 1671460);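 further: cells exposed to compounds for 96 hours before viability readout; 0% = vehicle and 100% = killing control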
- assay conditions: Human astrocytes, viability inhibition, drug combinations; measured here: combo with cisplatin IC20; at 0.5 µM; stronger effect = higher value
Respond numerically; units are % and should not be typed.

molecule="CC=C1NC(=O)C2CSSCCC=CC(CC(=O)NC(C(C)C)C(=O)N2)OC(=O)C(C(C)C)NC1=O (centres undefined)" value_measured=101
molecule="O=c1ccn(C2CC(O)C(CO)O2)c(=O)[nH]1 (centres undefined)" value_measured=4.49
molecule=C[C@@H]1O[C@@H](O[C@@H]2[C@@H](O)[C@H](OCCc3ccc(O)c(O)c3)O[C@H](CO)[C@H]2OC(=O)C=Cc2ccc(O)c(O)c2)[C@H](O)[C@H](O)[C@H]1O value_measured=5.26
molecule=Cc1ccc(NC(=O)CCCCCC(=O)Nc2ccccc2N)cc1 value_measured=-17.6
molecule=Cn1cc(-c2cnn3c(N)c(Br)c([C@H]4CCCNC4)nc23)cn1 value_measured=-30.9
molecule=COc1ccc(-c2nc(-c3cc(C(F)(F)F)cc(C(F)(F)F)c3)n(Cc3ccc(C(N)=O)cc3)c2-c2ccc(OC)cc2)cc1 value_measured=6.54
molecule="Cc1cn(C2CC(O)C(COP(=O)(O)OP(=O)(O)OP(=O)(O)O)O2)c(=O)[nH]c1=O (centres undefined)" value_measured=3.8
molecule="C=C(C)C1CCC2(C(=O)O)CCC3(C)C(CCC4C5(C)CCC(O)C(C)(C)C5CCC43C)C12 (centres undefined)" value_measured=21

Kindly consider the entry below.
Lab note: measured inhibition of Cc1c(Br)cc(NCC(=O)N/N=C/c2cc([N+](=O)[O-])ccc2O)cc1Br was 17.7

----------
- experimental details: growth inhibition, single agents and combos, ICB984, cell-based, cisplatin or BGB combos, synergistic combos for chromothripsis tumors (AID 1671451);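 further: cells exposed for 96 hours before readout; 0% = vehicle DMSO and 100% = killing by high DMSO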
- assay conditions: ICB984 medulloblastoma cells, drug combinations, at 0.5 µM, stronger effect = higher value
measure name: inhibition (%)
Your answer is read as %, so omit the unit and give the number.

Solved entries (count: 6):
compound=O=C(CCCCCCC(=O)Nc1ccc(I)cc1)NO value_measured=-43
compound="CC1OC(CC(=O)O)CC2=C1C(=O)c1c(O)cccc1C2=O (stereo not drawn)" value_measured=0.28
compound=CC(C)(C#N)c1ccc(N2C(=O)OCc3cnc4ccc(-c5cnc6ccccc6c5)cc4c32)cc1 value_measured=-29.7
compound=CC(C)C(=O)SCCCCCCC(=O)Nc1nc(-c2ccccc2)cs1 value_measured=-31.1
compound=Cc1cc(C)c(Nc2ccnc(Nc3ccc(C#N)cc3)n2)c(C)c1 value_measured=-22.9
compound="CCC(C)C(=O)OC1CC(C)C=C2C=CC(C)C(CCC3CC(O)CC(=O)O3)C21 (stereo not drawn)" value_measured=-5.66

In plain terms, CC(C=CC(=O)NO)=CC(C)C(=O)c1ccc(N(C)C)cc1 (stereo not drawn) has a documented inhibition of -36.8

# inhibition of COc1ccc(-c2nc(-c3cc(C(F)(F)F)cc(C(F)(F)F)c3)n(Cc3ccc(C(N)=O)cc3)c2-c2ccc(OC)cc2)cc1 = -9.24
